Reported IC50 values for the following compounds.
Tested on: HeLa
Assay Info: Antiproliferative activity against human HeLa cells incubated for 72 hrs
Assay type: functional, cell-based

[
  {
    "Compound": "COc1ccc(/C=C\\c2cc(OC)c(OC)c(OC)c2)cc1OC(=O)CCCCCOCCc1cn(CCCCC(=O)Nc2cccc3c2C(=O)N(C2CCC(=O)NC2=O)C3=O)nn1 (stereo not drawn)",
    "Measured On": "HeLa",
    "Value": "> 5000 nM"
  },
  {
    "Compound": "COc1ccc(/C=C\\c2cc(OC)c(OC)c(OC)c2)cc1OC(=O)CCCNc1cccc2c1C(=O)N(C1CCC(=O)NC1=O)C2=O (stereo not drawn)",
    "Measured On": "HeLa",
    "Value": "21 nM"
  }
]

Request: So what's the measured IC50 for this one? COc1ccc(/C=C\c2cc(OC)c(OC)c(OC)c2)cc1OC(=O)CCCCCN1C(=O)CCC(N2Cc3c(N)cccc3C2=O)C1=O (stereo not drawn)
Result: > 5000 nM
